test system: Plasmodium falciparum; assay: Primary screen in NF54 nanoGlo assay, in single point, at 2uM, 72h; a lower Z score goes with more inhibition; type: functional, Erythrocyte; settings: timepoint 72 hour
Out of some 150,000 compounds screened, about 540 (0.36%) showed an effect of 50% or more. Many of the other results were omitted from the sample, so strong results are more common in it than they were.
Classification field: enter label 1 for Z score values not below -0.3, label 0 for values below it.

Problem: Item `COCCCN(Cc1ccc(C(O)(c2ccc(OC)cc2)c2ccc(OC)cc2)o1)Cc1ccccc1OC` with Z score of -0.3 or above?
Solution: label 0

Problem: Item `CN1CC[C@H](N(C)C(=O)c2ccc(-c3ccc4c(=O)[nH]ccc4c3)cc2)C1` with Z score of -0.3 or above?
Solution: label 1

Problem: Item `COc1ccc(Nc2nc(N3CCCC3)nc3c2cnn3C)cc1Cl` with Z score of -0.3 or above?
Solution: label 0

Problem: Item `Cc1ccc(NC(=O)c2cccc(F)c2)c(-c2nc3ccccc3nc2O)c1` with Z score of -0.3 or above?
Solution: label 1

Problem: Item `O=C(NCCCn1ccnc1)[C@@H]1Cc2c(ccc3ccccc23)O1` with Z score of -0.3 or above?
Solution: label 0

Problem: Item `COc1ccc2cc1Oc1cccc(c1)CO[C@H]1CCN(C(=O)CN3CCC(O)CC3)C[C@H]1NC(=O)CC2` with Z score of -0.3 or above?
Solution: label 1

Problem: Item `COc1cccc(S(=O)(=O)N2CCC(OCCOCc3ccccc3)CC2)c1` with Z score of -0.3 or above?
Solution: label 0

Problem: Item Cc1ccccc1CNC1C(=O)NCCC1C (stereo unspecified) with Z score of -0.3 or above?
Solution: label 1

Problem: Item `CCCN(CCC)C[C@H](O)COc1c(Cl)cccc1Cl` with Z score of -0.3 or above?
Solution: label 1

Problem: Item `COc1cc(C(=O)Nc2cccc(-c3nc(C)cc(=O)[nH]3)c2)ccc1OCc1cscn1` with Z score of -0.3 or above?
Solution: label 1

Problem: Item `COc1ccc(-c2cc3nc(C)cc(N4CCC(C(=O)NCc5ccccc5)CC4)n3n2)cc1` with Z score of -0.3 or above?
Solution: label 0

Problem: Item `CCCCN(CCCNC(=O)[C@H]1CCCN(c2ncnc3onc(C)c23)C1)Cc1ccccc1` with Z score of -0.3 or above?
Solution: label 0

Problem: Item `O=C(Cn1nccn1)N1CCN(Cc2ccc3c(c2)OCO3)CC1` with Z score of -0.3 or above?
Solution: label 1

Problem: Item `CC(C)[C@H](NC(=O)c1cc(O)ccn1)C(=O)NC1CCCCC1` with Z score of -0.3 or above?
Solution: label 1

Problem: Item `NC(=NCc1cccc2cccnc12)N1CCN(c2nccs2)CC1` with Z score of -0.3 or above?
Solution: label 0

Problem: Item `CC(C)Nc1nc2nonc2n2cnnc12` with Z score of -0.3 or above?
Solution: label 0

Problem: Item `Oc1ccccc1CNc1cccc2c[nH]nc12` with Z score of -0.3 or above?
Solution: label 1

Problem: Item `O=C(Nc1cccc2cccnc12)c1cscn1` with Z score of -0.3 or above?
Solution: label 0

Problem: Item `Cc1ccc(S(=O)(=O)N(CC(=O)N[C@@H](C)c2ccccc2)c2cccc(Br)c2)cc1` with Z score of -0.3 or above?
Solution: label 0

Problem: Item `Oc1cccc(CNc2cccc3cccnc23)c1` with Z score of -0.3 or above?
Solution: label 0

Problem: Item `CCn1nccc1C=C(C)c1ncccn1` with Z score of -0.3 or above?
Solution: label 1

Problem: Item `CC(C)Nc1nc2nonc2n2nnnc12` with Z score of -0.3 or above?
Solution: label 0

Problem: Item `CC(C)c1nccn1CCC(=O)Nc1ncn(C2CCCCC2)n1` with Z score of -0.3 or above?
Solution: label 1

Problem: Item `O=C(N[C@@H]1c2ccccc2OC[C@@H]1CO)[C@H](O)c1ccccc1` with Z score of -0.3 or above?
Solution: label 1

Problem: Item `c1cc(N2CC[C@]3(CCOC3)C2)c2sccc2n1` with Z score of -0.3 or above?
Solution: label 1

Problem: Item `O=C(NCCN1CCOCC1)c1c[nH]c2ccc(Cl)cc2c1=O` with Z score of -0.3 or above?
Solution: label 1
